These entries and their values trace back to paper PMC10762177.

- tgt: P-gp (Homo sapiens, UniProt P08183)
- Sequence (P08183 whole entry): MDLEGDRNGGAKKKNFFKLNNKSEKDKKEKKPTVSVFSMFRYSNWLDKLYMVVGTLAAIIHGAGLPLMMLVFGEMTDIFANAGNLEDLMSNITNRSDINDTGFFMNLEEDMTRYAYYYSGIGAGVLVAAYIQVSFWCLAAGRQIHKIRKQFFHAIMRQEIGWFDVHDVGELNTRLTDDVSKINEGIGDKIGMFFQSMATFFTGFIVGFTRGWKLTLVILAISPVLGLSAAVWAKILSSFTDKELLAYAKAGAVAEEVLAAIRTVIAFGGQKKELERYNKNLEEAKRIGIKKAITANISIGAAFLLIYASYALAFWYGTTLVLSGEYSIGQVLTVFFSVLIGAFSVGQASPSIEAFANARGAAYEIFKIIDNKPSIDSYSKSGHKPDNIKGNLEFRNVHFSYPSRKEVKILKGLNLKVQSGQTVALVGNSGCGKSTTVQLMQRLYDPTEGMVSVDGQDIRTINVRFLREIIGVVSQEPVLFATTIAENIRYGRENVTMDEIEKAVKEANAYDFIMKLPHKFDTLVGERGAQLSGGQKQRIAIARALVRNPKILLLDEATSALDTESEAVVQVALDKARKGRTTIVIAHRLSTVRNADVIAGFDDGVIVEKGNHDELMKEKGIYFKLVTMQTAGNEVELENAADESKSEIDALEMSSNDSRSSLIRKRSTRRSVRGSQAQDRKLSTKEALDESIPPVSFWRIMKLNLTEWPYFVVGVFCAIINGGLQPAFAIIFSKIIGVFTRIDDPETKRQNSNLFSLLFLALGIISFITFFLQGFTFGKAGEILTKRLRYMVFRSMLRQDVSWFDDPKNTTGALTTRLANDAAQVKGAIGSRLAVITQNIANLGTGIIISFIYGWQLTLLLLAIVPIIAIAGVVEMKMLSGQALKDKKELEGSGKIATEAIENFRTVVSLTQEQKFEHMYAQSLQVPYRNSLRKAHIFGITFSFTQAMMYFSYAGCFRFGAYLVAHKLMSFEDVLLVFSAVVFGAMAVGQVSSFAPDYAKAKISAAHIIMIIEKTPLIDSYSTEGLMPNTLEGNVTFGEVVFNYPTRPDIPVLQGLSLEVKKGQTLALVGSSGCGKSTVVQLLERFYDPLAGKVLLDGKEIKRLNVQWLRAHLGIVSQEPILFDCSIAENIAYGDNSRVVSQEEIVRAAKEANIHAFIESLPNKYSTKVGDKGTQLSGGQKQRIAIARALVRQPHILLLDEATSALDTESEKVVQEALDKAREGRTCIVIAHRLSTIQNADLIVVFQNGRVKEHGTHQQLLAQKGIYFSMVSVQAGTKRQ
- assay notes: Rhodamine 123 intracellular accumulation assay in K562/Dox (flow cytometry)
- test parameters: Rho123 accumulation, K562/Dox
experimental endpoint: MEC (minimum effective concentration)

C=C(C)[C@@H]1CC[C@]2(COC(=O)NCCN3CCN(C(=O)OC(C)(C)C)CC3)CC[C@]3(C)[C@H](CC[C@@H]4[C@@]5(C)CC[C@H](O)C(C)(C)[C@@H]5CC[C@]43C)[C@@H]12; 12.50 µM
COc1cc2c(cc1OC)CN(CCc1ccc(NC(=O)c3cc(OC)c(OC)cc3NC(=O)c3cnc4ccccc4c3)cc1)CC2 [Tariquidar, tariquidar, reference compound]; 0.78 µM
C=C(C)[C@@H]1CC[C@]2(COC(=O)NCCc3cc(OC)c(OC)c(OC)c3)CC[C@]3(C)[C@H](CC[C@@H]4[C@@]5(C)CC[C@H](O)C(C)(C)[C@@H]5CC[C@]43C)[C@@H]12; 0.19 µM
C=C(C)[C@@H]1CC[C@]2(COC(=O)NCCN3CCNCC3)CC[C@]3(C)[C@H](CC[C@@H]4[C@@]5(C)CC[C@H](O)C(C)(C)[C@@H]5CC[C@]43C)[C@@H]12; 1.56 µM
C=C(C)[C@@H]1CC[C@]2(COC(=O)c3cc(OC)c(OC)c(OC)c3)CC[C@]3(C)[C@H](CC[C@@H]4[C@@]5(C)CC[C@H](O)C(C)(C)[C@@H]5CC[C@]43C)[C@@H]12; 50 µM
C=C(C)[C@@H]1CC[C@]2(COC(=O)/C=C/c3cc(OC)c(OC)cc3OC)CC[C@]3(C)[C@H](CC[C@@H]4[C@@]5(C)CC[C@H](O)C(C)(C)[C@@H]5CC[C@]43C)[C@@H]12; > 50 µM
C=C(C)[C@@H]1CC[C@]2(COC(=O)NCCc3ccc(OC)c(OC)c3)CC[C@]3(C)[C@H](CC[C@@H]4[C@@]5(C)CC[C@H](O)C(C)(C)[C@@H]5CC[C@]43C)[C@@H]12; 1.56 µM
C=C(C)[C@@H]1CC[C@]2(COC(=O)NCc3ccc(N4CCN(C)CC4)cc3)CC[C@]3(C)[C@H](CC[C@@H]4[C@@]5(C)CC[C@H](O)C(C)(C)[C@@H]5CC[C@]43C)[C@@H]12; 6.25 µM
C=C(C)[C@@H]1CC[C@]2(COC(=O)/C=C/c3cc(OC)c(OC)c(OC)c3)CC[C@]3(C)[C@H](CC[C@@H]4[C@@]5(C)CC[C@H](O)C(C)(C)[C@@H]5CC[C@]43C)[C@@H]12; > 50 µM

----------
- Test system: K562/Dox cells
- assay notes: MTT colorimetric assay, cytotoxicity on resistant K562/Dox
- Type: cell-based
- test parameters: MTT, 48 h, K562/Dox; read-out: IC50 K562/Dox
experimental endpoint: IC50 (nM)

COc1cc2c(cc1OC)CN(CCc1ccc(NC(=O)c3cc(OC)c(OC)cc3NC(=O)c3cnc4ccccc4c3)cc1)CC2 [Tariquidar, tariquidar, reference compound]; 2250

----------
- tgt: UniProt:P08183
- assay notes: Rhodamine 123 intracellular accumulation assay in K562/Dox (flow cytometry)
- test parameters: Rho123, K562/Dox, 3.12 µM
Below is a list of entries, each paired with its recorded FAR (fluorescence activity ratio) value.
experimental endpoint: FAR (fluorescence activity ratio)

C=C(C)[C@@H]1CC[C@]2(CO)CC[C@]3(C)[C@H](CC[C@@H]4[C@@]5(C)CC[C@H](O)C(C)(C)[C@@H]5CC[C@]43C)[C@@H]12 [Compound 1, betulin]; 1.23
C=C(C)[C@@H]1CC[C@]2(COC(=O)N3CCN(C)CC3)CC[C@]3(C)[C@H](CC[C@@H]4[C@@]5(C)CC[C@H](O)C(C)(C)[C@@H]5CC[C@]43C)[C@@H]12 [Compound 6i]; 1.71
C=C(C)[C@@H]1CC[C@]2(COC(=O)NCc3ccc(OC)c(OC)c3)CC[C@]3(C)[C@H](CC[C@@H]4[C@@]5(C)CC[C@H](O)C(C)(C)[C@@H]5CC[C@]43C)[C@@H]12 [Compound 6c]; 1.13
C=C(C)[C@@H]1CC[C@]2(COC(=O)N3CCc4cc(OC)c(OC)cc4C3)CC[C@]3(C)[C@H](CC[C@@H]4[C@@]5(C)CC[C@H](O)C(C)(C)[C@@H]5CC[C@]43C)[C@@H]12 [Compound 6m]; 1.17
C=C(C)[C@@H]1CC[C@]2(COC(=O)NCc3ccc(N4CCN(C)CC4)cc3)CC[C@]3(C)[C@H](CC[C@@H]4[C@@]5(C)CC[C@H](O)C(C)(C)[C@@H]5CC[C@]43C)[C@@H]12 [Compound 6l]; 1.08
C=C(C)[C@@H]1CC[C@]2(COC(=O)NCc3cc(OC)c(OC)c(OC)c3)CC[C@]3(C)[C@H](CC[C@@H]4[C@@]5(C)CC[C@H](O)C(C)(C)[C@@H]5CC[C@]43C)[C@@H]12 [Compound 6d]; 1.64
C=C(C)[C@@H]1CC[C@]2(COC(=O)NCCN3CCNCC3)CC[C@]3(C)[C@H](CC[C@@H]4[C@@]5(C)CC[C@H](O)C(C)(C)[C@@H]5CC[C@]43C)[C@@H]12 [Compound 6k]; 1.48
C=C(C)[C@@H]1CC[C@]2(COC(=O)NCCc3cc(OC)c(OC)c(OC)c3)CC[C@]3(C)[C@H](CC[C@@H]4[C@@]5(C)CC[C@H](O)C(C)(C)[C@@H]5CC[C@]43C)[C@@H]12 [Compound 6g]; 2.05
C=C(C)[C@@H]1CC[C@]2(COC(=O)NCCc3ccc(OC)c(OC)c3)CC[C@]3(C)[C@H](CC[C@@H]4[C@@]5(C)CC[C@H](O)C(C)(C)[C@@H]5CC[C@]43C)[C@@H]12 [Compound 6f]; 1.25
C=C(C)[C@@H]1CC[C@]2(COC(=O)Nc3cc(OC)c(OC)c(OC)c3)CC[C@]3(C)[C@H](CC[C@@H]4[C@@]5(C)CC[C@H](O)C(C)(C)[C@@H]5CC[C@]43C)[C@@H]12 [Compound 6a]; 1.12

----------
Below is a list of entries, each paired with its recorded pIC50 value.
- Test system: K562/Dox cells
- assay notes: MTT colorimetric assay, cytotoxicity on resistant K562/Dox
- Type: cell-based
- test parameters: Homo sapiens, K562, 48 h, MTT, 48 h, K562/Dox; read-out: IC50 K562/Dox
pIC50: −log10 of the molar value. Structures can show the parent of a compound that is named as a salt.
experimental endpoint: pIC50

C=C(C)[C@@H]1CC[C@]2(COC(=O)NCc3ccc(N4CCN(C)CC4)cc3)CC[C@]3(C)[C@H](CC[C@@H]4[C@@]5(C)CC[C@H](O)C(C)(C)[C@@H]5CC[C@]43C)[C@@H]12 [Compound 6l]; 4.76
C=C(C)[C@@H]1CC[C@]2(COC(=O)N3CCc4cc(OC)c(OC)cc4C3)CC[C@]3(C)[C@H](CC[C@@H]4[C@@]5(C)CC[C@H](O)C(C)(C)[C@@H]5CC[C@]43C)[C@@H]12 [Compound 6m]; < 4.30
C=C(C)[C@@H]1CC[C@]2(COC(=O)c3ccc(OC)cc3)CC[C@]3(C)[C@H](CC[C@@H]4[C@@]5(C)CC[C@H](O)C(C)(C)[C@@H]5CC[C@]43C)[C@@H]12 [Compound 3a]; < 4.30
COc1cccc2c1C(=O)c1c(O)c3c(c(O)c1C2=O)C[C@@](O)(C(=O)CO)C[C@@H]3O[C@H]1C[C@H](N)[C@H](O)[C@H](C)O1 [Doxorubicin, Doxorubicin hydrochloride, reference compound]; 4.07
C=C(C)[C@@H]1CC[C@]2(COC(=O)/C=C/c3cc(OC)c(OC)cc3OC)CC[C@]3(C)[C@H](CC[C@@H]4[C@@]5(C)CC[C@H](O)C(C)(C)[C@@H]5CC[C@]43C)[C@@H]12 [Compound 3e]; < 4.30
C=C(C)[C@@H]1CC[C@]2(COC(=O)N3CCNCC3)CC[C@]3(C)[C@H](CC[C@@H]4[C@@]5(C)CC[C@H](O)C(C)(C)[C@@H]5CC[C@]43C)[C@@H]12 [Compound 6h]; 4.90
C=C(C)[C@@H]1CC[C@]2(COC(=O)NCCc3cc(OC)c(OC)c(OC)c3)CC[C@]3(C)[C@H](CC[C@@H]4[C@@]5(C)CC[C@H](O)C(C)(C)[C@@H]5CC[C@]43C)[C@@H]12 [Compound 6g]; < 4.30
C=C(C)[C@@H]1CC[C@]2(COC(=O)NCCc3ccc(OC)c(OC)c3)CC[C@]3(C)[C@H](CC[C@@H]4[C@@]5(C)CC[C@H](O)C(C)(C)[C@@H]5CC[C@]43C)[C@@H]12 [Compound 6f]; < 4.30
C=C(C)[C@@H]1CC[C@]2(COC(=O)NCCN3CCN(C(=O)OC(C)(C)C)CC3)CC[C@]3(C)[C@H](CC[C@@H]4[C@@]5(C)CC[C@H](O)C(C)(C)[C@@H]5CC[C@]43C)[C@@H]12 [Compound 6j]; < 4.30
C=C(C)[C@@H]1CC[C@]2(COC(=O)NCc3ccc(OC)c(OC)c3)CC[C@]3(C)[C@H](CC[C@@H]4[C@@]5(C)CC[C@H](O)C(C)(C)[C@@H]5CC[C@]43C)[C@@H]12 [Compound 6c]; < 4.30
